Listed below: melting point values for each entry.

Consider the reported melting point for these compounds:
Need melting point, item O=C1c2cccc(NC(=S)Nc3cnccn3)c2C2CCCCN12 (centres undefined) 204 °C

Need melting point, item CN(CCN(CCC12CC3CC(CC(C3)C1)C2)C(=O)NCCCc1ccncc1)C(=O)CC(C)(C)C 101 to 102 °C

Need melting point, item COC(=O)[C@@](C#N)(Cc1ccc(Br)cc1)[C@H](c1ccccc1OC)c1cccc2ccccc12 (relative stereo) 218 to 219 °C

Need melting point, item O=C(O)Cc1csc(-c2cccc(O)c2)n1 172 to 174 °C

Need melting point, item c1cncc(CCNc2nc(-c3cccs3)ncc2-n2cccn2)c1 133 to 134 °C

Need melting point, item COc1ccc2cc(C(=O)C(C)N3CCN(Cc4ccccc4)CC3)ccc2c1 (centres undefined) 149 to 150 °C

***
Need melting point, item CC(=O)Nc1ccc(SCC(OS(C)(=O)=O)C(C)(C)C)cc1 (centres undefined) 123 to 124 °C

Need melting point, item CC1N(C(=O)c2ccc(OCC(F)(F)C(F)F)cc2)CC(=O)OC1(Cn1cncn1)c1ccc(Cl)cc1Cl (centres undefined) 88 to 94 °C

Need melting point, item N=C(N)NC(=O)Cn1c(C(=O)c2ccccc2)ccc1-c1ccccc1 201 to 203 °C

====

Listed below: melting point values for each entry.

Need melting point, item Cc1ccc(N)c(S)c1 90 °C

Need melting point, item COc1ccc(OC2COc3ccc(OCc4ccccc4)cc3C2=O)cc1 (configuration not stated) 98 to 100 °C

Need melting point, item O=C1NC(c2ccccc2)(c2ccccc2)C(=O)N1CO 185 to 189 °C

Need melting point, item CCN/C(=C1/Sc2ccccc2C1=O)c1ccccc1CC 76 to 77 °C

Need melting point, item COC(=N)c1ccc(C(=O)O)cn1 284 to 286 °C

***
Need melting point, item COc1ccc(Cl)cc1-c1c(CCO)c(=O)[nH]c2ccc(C(F)(F)F)cc12 216 to 217 °C

Need melting point, item N#Cc1cnc2cc3cc(O)ccc3cc2c1Nc1ccc(Cl)cc1Cl 267 to 269 °C

====

Listed below: melting point values for each entry.

Need melting point, item O=CNc1nc(S)n[nH]1 260 to 262 °C

***
Need melting point, item CCOC1=NC(OC)=NS(=O)(=O)N1C(C)C 81 to 85 °C

Need melting point, item Nc1nc(N)c2nc(-c3cccc(O)c3)cnc2n1 > 300 °C

Need melting point, item COc1ccc2c(c1)C(=O)c1cc(-c3nnn[nH]3)ccc1C2=O 265 to 266 °C

Need melting point, item CC(=Cc1ccccc1)c1ccc2c(c1)C(C)(C)CCO2 64 to 65 °C

Need melting point, item CCCOc1ccc(CNC=C2C(=O)N(O)C(=O)c3ccccc32)cc1O 176 to 178 °C

Need melting point, item O=C(O)CCCOc1cccc2occc12 91 to 93 °C

Need melting point, item CCNC(=O)N(c1ccc(C(O)(C(F)(F)F)C(F)(F)F)cc1)S(C)(=O)=O 161 to 164 °C

Need melting point, item COc1cc(C(C)C)c2c(c1)S(=O)(=O)N(COC(=O)c1c(C)noc1C)C2=O 137 to 139 °C

Need melting point, item Cn1ncc(N2CCNCC2)c(Cl)c1=O 83 to 87 °C

====

MEASURED_PROPERTY: melting point

Consider the reported melting point for these molecules:
Need melting point, item NC(=O)c1[nH]c2ccccc2c1-c1ccc(NS(=O)(=O)c2cccc(Cl)c2Cl)cc1 > 260 °C

Need melting point, item CC(=O)Nc1cc(-c2sc(-c3ccc(S(C)(=O)=O)cc3)nc2-c2cccc(Cl)c2)ccn1 216 to 217 °C

***
Need melting point, item CCN1C(C(=O)Nc2ccccc2)=C(O)c2ccc3ccccc3c2S1(=O)=O 245 to 247 °C

====

Listed below: melting point values for each entry.
Answer format: numeric, °C implied, no suffix.

Consider the reported melting point for these compounds:
Need melting point, item CCOC(=O)Nc1ccc(C(=O)c2ccccc2)cc1COC1CCCCO1 (centres undefined) 116

Need melting point, item N#Cc1cn(-c2cccc(F)c2)c(=O)[nH]c1=O 246

Would you kindly look at the next entry?
Need melting point, item Clc1ccc(C(CCC2CCCC2)Cn2cncn2)c(Cl)c1 (centres undefined) 71

====

MEASURED_PROPERTY: melting point

Consider the reported melting point for these compounds:
Need melting point, item CC(C)N1CCN(c2ccc(-c3[nH]nc4c3C(=O)c3c(NC(=O)NN5CCN(C)CC5)cccc3-4)cc2)CC1 272 °C

Need melting point, item N#Cc1cnc2c(oc3ccccc32)c1Nc1ccc(Oc2ccccc2)cc1 175 to 179 °C

Need melting point, item CC(C)(C)CNc1cc(Cl)nc(NC(C)(C)C)n1 110 to 111 °C

Need melting point, item Fc1ccccc1-c1nc2cccnc2s1 119 to 121 °C

Need melting point, item CC(C)=C(c1ccc(C(=O)O)cc1)c1ccc2c(c1)C(C)(C)CCC2(C)C 204 to 206 °C

Would you kindly look at the next entry?
Need melting point, item COCCOc1ccc([N+](=O)[O-])cc1I 35 to 36 °C

====

MEASURED_PROPERTY: melting point

Consider the reported melting point for these compounds:
Need melting point, item CC(C)c1nc2c3c(c(C(=O)N(C)C)cc2n1C)CCC(c1ccccc1)O3 (centres undefined) 179 to 180 °C

Need melting point, item CC1(C)Cc2nc(C3CCCC3)c(C(=O)c3ccc(C(F)(F)F)cc3)c(-c3ccc(F)c(F)c3)c2C(O[Si](C)(C)C(C)(C)C)C1 (centres undefined) 128 to 129 °C

Need melting point, item CCOC(=O)c1cnn(CC(O)c2ccccc2)c1NC(=S)NC(=O)c1ccccc1 (centres undefined) 171 to 172 °C

***
Need melting point, item CCCCCCCCCCCCCCCCCCOC(=O)CCCCCCCCCCCCCCCCC 47 to 55 °C

====

Listed below: melting point values for each entry.

Consider the reported melting point for these compounds:
Need melting point, item COC(=O)C(Cc1cc(Br)c(O)c(Br)c1)NC(=O)C(F)(F)F (stereo not drawn) 136 to 137 °C

Need melting point, item CCCn1c(=O)c2[nH]c(-c3cc(C)n(CC(=O)Nc4cccc5ccccc45)n3)nc2n(CCC)c1=O > 300 °C

Need melting point, item C=CCNC(=S)Nc1cc(=N)n2c(n1)SCCC2 196 to 197 °C

Need melting point, item CCOC(=O)c1cc(=O)c(-c2ccc(OC)cc2)co1 121 to 123 °C

Need melting point, item NC(=O)N(O)Cc1cccc(OCCc2csc(-c3ccc(C(F)(F)F)cc3)n2)c1 118 to 120 °C

Need melting point, item CN(Cc1ccc(NS(C)(=O)=O)cc1)C1CCN(c2ccc(NS(C)(=O)=O)cc2)CC1 177 to 179 °C

Need melting point, item COCCc1ccc(-c2ccc(I)cc2)cc1 97 to 99.4 °C

Would you kindly look at the next entry?
Need melting point, item CCC(O)c1ccc(Cc2c(Cl)cc(N3N=CCNC3=O)cc2Cl)cc1 (stereo not drawn) 148 to 149 °C

====

Listed below: melting point values for each entry.

Consider the reported melting point for these compounds:
Need melting point, item N#Cc1ccccc1-c1ccc(O)cc1 176 to 178 °C

Need melting point, item O=C(Nc1cc(NC(=O)C2CCCCC2)cc(NC(=O)C2CCCCC2)c1)C1CCCCC1 286 °C

Need melting point, item CNCc1ccccc1-c1ccc(C(=O)N2Cc3ccc(C(=O)NCc4cccnc4)n3Cc3ccccc32)cc1 149 to 150 °C

Need melting point, item OC1CSC(Oc2ccc(-c3cccnc3F)nc2Cl)C(O)C1O (stereo unspecified) 153 °C

Need melting point, item COc1ccc(-c2ccc(C(N)=O)cc2)cc1-c1ccc2nonc2c1 235 to 255 °C

Would you kindly look at the next entry?
Need melting point, item C#CCn1c(-c2cc(Cl)nc(Cl)c2)nc(O)c(CC)c1=O 200 to 202 °C

====

Listed below: melting point values for each entry.

Need melting point, item CC(C)OC(=O)c1nc(Cl)c(-c2c(F)cc(F)cc2F)c(N[C@@H](C)C(F)(F)F)n1 146 to 147 °C

***
Need melting point, item Nc1cccc(Nc2nccc(Sc3cccc(Br)c3)n2)c1 109 to 110 °C

Need melting point, item O=C(O)CCCCc1ccn2cncc2c1 158 to 161 °C

====

MEASURED_PROPERTY: melting point

Consider the reported melting point for these compounds:
Need melting point, item CCCNC(=O)C(C)=Cc1ccc2ccn(Cc3ccc(C(=O)NS(=O)(=O)c4ccccc4C)cc3OC)c2c1 224 to 227 °C

Need melting point, item CS(=O)(=O)NCCn1nccc1-c1ccc(Oc2ccc(F)cc2)cc1 96 to 98 °C

Need melting point, item CC(C)(C)c1cccc(S(=O)(=O)n2c(C(=O)c3ccc(C(=O)O)s3)cc3cc(C(F)(F)F)ccc32)c1 217 °C

Need melting point, item O=C1c2ccccc2-c2c1c1ccccc1c(=O)n2CCCCO 165 to 166 °C

Need melting point, item COC(=O)c1ccc(C#Cc2ccccc2F)o1 106 to 108 °C

Need melting point, item CC(=O)c1csc(-c2ccncc2)c1C 87 to 87.5 °C

***
Need melting point, item COc1cc2c(cc1OC)C(=O)CC(C)(C)O2 105 to 106 °C

Need melting point, item O=C(Nc1ccc(OCc2ccccc2)cc1)C(Br)CCBr (racemic) 140 to 142 °C
